protocol_details: yeast display, Sf9 membrane polyspecificity reagent, FACS + sequencing; frameworks hold sequencing errors
reported_metric: polyreactivity (PSR sort gate)

Qu. Tell me the measured polyreactivity (PSR sort gate) of `QVQLVESGGGLVQAGGSLRLSCAASGSTFYNYAMGWYRQAPGKERELVAAITSSGGSTYYADSVKGRFTISRDNAKNTVYLQMNSLKPEDTAVYYCAATRRDRRKSFTYRYDYWGQGTQVTVSS` , please.
Ans. high polyreactivity

Qu. Tell me the measured polyreactivity (PSR sort gate) of `QVQLVESGGGLVQAGGSLRLICAASGFIFGHNAMGWYRQAPGKERELVAAITWRGRTYYADSVKGRFTISRDNAKNCVYLQMNSMKPEDTSVFSCNAYVRYGYDYWGQGTQVTVSS` , please.
Ans. high polyreactivity

Source: the nanobody polyreactivity screen of Harvey et al. (2022)
